Test system: MALME-3M melanoma
Experiment: NCI tumour cell line growth inhibition, 48 h
measured quantity: TGI

# count of solved cases: 5
>  <compound>
CCOC(=O)C1=C(O)C(=O)c2ccsc2C1=O

>  <TGI>
> 100 µM

$$$$
>  <compound>
COc1ccc(N=c2ssc3c(=S)ssc23)cc1

>  <TGI>
> 100 µM

$$$$
>  <compound>
C#CCOCC12C=CC(O1)C1C(=O)N(C)C(=O)C12 (stereo unspecified)

>  <TGI>
> 100 µM

$$$$
>  <compound>
N#C/C(=C\c1c(-c2ccccc2)[nH]c2ccccc12)S(=O)(=O)c1ccccc1

>  <TGI>
> 55.8 µM

$$$$
>  <compound>
CCOC1(COP(=O)(OCc2ccccc2)OCc2ccccc2)COC(COP(=O)(OCc2ccccc2)OCc2ccccc2)(OCC)CO1 (stereo unspecified)

>  <TGI>
> 100 µM

$$$$

Next up:
Entry C=CCOC1OC(CO[Si](C)(C)C(C)(C)C)C(OCc2ccccc2)C(OCc2ccccc2)C1OCc1ccccc1 (stereo unspecified) — recorded TGI = > 100 µM

----------
System: CAKI-1 renal
Test: NCI tumour cell line growth inhibition, 48 h
measured quantity: TGI

Could I get TGI for every one of these entries?
1. CCC1(CC)CC(=NNS(=O)(=O)c2ccc(C)cc2)C1
2. CCCCCCNC(=O)c1cnc(Cl)cn1
3. Cn1cnc2nc(Cl)nc(NC(C)(C)C(C)(C)O)c21

Return:
1. > 100 µM
2. 2.39 µM
3. > 100 µM

----------
Tested on: U251 CNS
Experiment: NCI tumour cell line growth inhibition, 48 h
measured quantity: TGI

# count of solved cases: 4
>  <molecule>
COc1ccccc1NC(=O)/C(Cc1nc2ccc([N+](=O)[O-])cc2[nH]c1=O)=N\NC(=O)C[N+](C)(C)C

>  <target>
U251 CNS

>  <TGI>
> 100 µM

$$$$
>  <molecule>
Cc1c(C#N)c(=O)[nH]c(=O)n1CCN1CCN(C(=O)NCCCCCCNC(=O)N2CCN(CCn3c(C)c(C#N)c(=O)[nH]c3=O)CC2)CC1

>  <target>
U251 CNS

>  <TGI>
> 100 µM

$$$$
>  <molecule>
CSCC1CC(c2ccc(Cl)cc2)=NO1 (stereo not given)

>  <target>
U251 CNS

>  <TGI>
> 100 µM

$$$$
>  <molecule>
COC1CC(OS(=O)(=O)c2ccc(C)cc2)C(OC(=O)c2ccccc2)C(C)O1 (stereo not given)

>  <target>
U251 CNS

>  <TGI>
> 10 µM

$$$$

U251 CNS TGI of COc1ccc(NC2Oc3cc4c(cc3C(c3cccc(OC)c3OC)C2C)OCO4)cc1 (stereo not given) is > 100 µM

----------
Test system: SF-295 CNS
Assay: NCI tumour cell line growth inhibition, 48 h; in the data active = GI50 below about 0.43 µM; inactive = the rest
# output must be one of active, inactive

Previously resolved entries follow.
>  <mol smiles>
CCN=C1C=CC(=C(c2ccc(N)cc2)c2ccc(N(CC)CC)c(C)c2)C=C1

>  <group>
active

$$$$
>  <mol smiles>
CN1CCN(Cc2ccc(NC(=O)c3cncc(C#Cc4cnc(N)c5ccncc45)c3)cc2C(F)(F)F)CC1

>  <group>
inactive

$$$$
>  <mol smiles>
COc1ccc2cc(-c3ccoc(=O)c3-c3cc(OC)c(OC)c(OC)c3)ccc2c1

>  <group>
active

$$$$

Enquiry: What call does the record list for "COc1cc2nc(N3CCCC3)nc(NCC3CCCCC3)c2cc1OC" ?
Return: inactive

Enquiry: What call does the record list for "O=C(/C(=C/c1ccccc1)CN1CCCCC1)c1ccccc1" ?
Return: inactive

Enquiry: What call does the record list for "COc1ccc(-c2cc(-c3ccccc3)nc(SCCCC(=O)NO)n2)cc1" ?
Return: inactive

Enquiry: What call does the record list for "N#C/C(=C\c1c(-c2ccccc2)[nH]c2ccccc12)S(=O)(=O)c1ccccc1" ?
Return: inactive

Enquiry: What call does the record list for "CC(C)(C)c1n[nH]c(=S)n(/N=C/c2ccc(F)c(Oc3ccccc3)c2)c1=O" ?
Return: inactive

Enquiry: What call does the record list for "Nc1ncnc2[nH]ncc12" ?
Return: active

Enquiry: What call does the record list for "O[C@H]1CO[C@H]2[C@@H]1OC[C@@H]2Oc1ccc(Nc2ccnc(Nc3ccc(O[C@H]4CO[C@H]5[C@@H]4OC[C@@H]5O)c(Cl)c3)n2)cc1Cl" ?
Return: inactive

Enquiry: What call does the record list for "O=c1[nH]c2ccccc2nc1-c1c[nH]c2ccccc12" ?
Return: inactive

----------
Tested on: M14 melanoma
Assay: NCI tumour cell line growth inhibition, 48 h
measured quantity: TGI

>  <compound>
NC(=O)CCCC(NCc1c2ccccc2nc2ccccc12)C(=O)O (stereo not given)

>  <measured quantity>
TGI

>  <recorded result>
> 100 µM

$$$$
>  <compound>
COc1nc2c(c(=O)n1C)N(C(C)=O)C1C(N2)OCC(OC(C)=O)C1OC(C)=O (stereo not given)

>  <measured quantity>
TGI

>  <recorded result>
> 10 µM

$$$$
>  <compound>
COc1ccc(-c2c(N)n(-c3nc4ccccc4s3)c(=O)c3cc([N+](=O)[O-])ccc23)cc1

>  <measured quantity>
TGI

>  <recorded result>
47.6 µM

$$$$

Could I get TGI for every one of these entries?
1. Cc1ccc(-c2nc3ccc(Cl)cc3[nH]2)cc1
2. CCOC(=O)c1nc2ccc([N+](=O)[O-])cc2c2c1CCO2

Return:
> 100 µM
> 100 µM

----------
Tested on: NCI-H460 lung
Assay: NCI tumour cell line growth inhibition, 48 h
Assignment: determine reported TGI for the given molecules.

>  <molecule>
O=NC1C(Cl)C2CC1C1C(Br)C(Br)CC21 (stereo unspecified)

>  <recorded result>
> 100 µM

$$$$

Could I get TGI for every one of these entries?
1. CCOC(=O)C1=C(NC)OC/C1=N\NC(=O)c1ccccc1O
2. NNC(=O)c1ccc(-n2nnc(C(=O)NN)c2C(=O)NN)cc1
3. CN(C)CCCNC(=O)N/N=C/c1cccc([N+](=O)[O-])c1
4. Cc1sc(Cc2ccccc2)nc1-c1ccc(N)cc1

Return:
["> 100 µM", "> 100 µM", "> 100 µM", "50.2 µM"]

Entry "Cc1c(C#N)c(=O)[nH]c(=O)n1CCN1CCN(C(=O)NCCCCCCNC(=O)N2CCN(CCn3c(C)c(C#N)c(=O)[nH]c3=O)CC2)CC1" — recorded TGI = > 100 µM

----------
Tested on: UACC-257 melanoma
Assay: NCI tumour cell line growth inhibition, 48 h
measured quantity: TGI

>  <compound>
COc1cc2c(cc1OCCCCOc1cc3c(cc1OC)C(=O)N1CCC[C@H]1CN3)N=C[C@@H]1CCCN1C2=O

>  <TGI>
> 100 µM

$$$$
>  <compound>
Fc1ccc2nc3n(c2c1)C(c1c(F)cccc1F)SC3 (centres undefined)

>  <TGI>
> 100 µM

$$$$
>  <compound>
C=CCOC1OC(CO[Si](C)(C)C(C)(C)C)C(OCc2ccccc2)C(OCc2ccccc2)C1OCc1ccccc1 (centres undefined)

>  <TGI>
> 100 µM

$$$$
>  <compound>
CCC1(CC)CC(=NNS(=O)(=O)c2ccc(C)cc2)C1

>  <TGI>
> 100 µM

$$$$
>  <compound>
C[C@@H]1CC[C@H]2C(COCCOCC3=C(C(F)(F)F)O[C@@H]4O[C@@]5(C)CC[C@H]6[C@H](C)CC[C@@H]3[C@@]46OO5)=C(C(F)(F)F)O[C@@H]3O[C@@]4(C)CC[C@@H]1[C@]32OO4

>  <TGI>
> 100 µM

$$$$
>  <compound>
CC1=C(N2CC2)C(=O)c2nc3n(c2C1=O)CCC3OC(=O)CCl (centres undefined)

>  <TGI>
0.235 µM

$$$$
>  <compound>
O=c1[nH]c2ccccc2nc1-c1c[nH]c2ccccc12

>  <TGI>
> 100 µM

$$$$
>  <compound>
N#Cc1c(N)oc(-c2cccc([N+](=O)[O-])c2)c1C#N

>  <TGI>
48.9 µM

$$$$

Could I get TGI for every one of these entries?
1. C/C=C/[P+](c1ccccc1)(c1ccccc1)c1ccccc1
2. CC(=O)OC1CCn2nnc(CO[Si](C)(C)C(C)(C)C)c21 (centres undefined)
3. CC1(C)CC(=O)c2c(nc3ccc4ccccc4c3c2-c2ccc(NC(=O)CCCC(=O)Nc3ccc(-c4c5c(nc6ccc7ccccc7c46)CC(C)(C)CC5=O)cc3)cc2)C1
4. COc1ccc(C2=C(Cl)c3cc(OC)c(OC)cc3C2Cl)cc1OC (centres undefined)
5. c1ccc2c(c1)c(NCCCCN1CCCCC1)cc1c3ccccc3c(NCCCCN3CCCCC3)cc21
6. CN1CCCCC1CCN1CCCCC1 (centres undefined)

Return:
11.2 µM
> 100 µM
> 100 µM
32 µM
6.36 µM
> 100 µM
